assay: activity coefficient (dimensionless); of the first substance listed, at infinite dilution; xn = mol fraction of the nth substance listed; settings: 388.15 K; 101 kPa; Liquid; Chromatography; x1 = 0
Threshold check on activity coefficient: at or above 7 gives T, strictly below gives F.

| COMPOUND | CATEGORY |
| --- | --- |
| C=Cc1ccccc1 [styrene] + CCCCn1cc[n+](C)c1.COP(=O)([O-])OC | F |
| C=CCCCC [hex-1-ene] + CCCCn1cc[n+](C)c1.COP(=O)([O-])OC | T |
| C=COC(C)=O [vinyl acetate] + CCCCn1cc[n+](C)c1.CS(=O)(=O)[O-] | F |
| CCC[N+](=O)[O-] [1-nitropropane] + CCCCn1cc[n+](C)c1.COP(=O)([O-])OC | F |
| C=CCCCCC [1-heptene] + CCCCn1cc[n+](C)c1.[Cl-] | T |
| c1ccncc1 [pyridine] + CCCCn1cc[n+](C)c1.CS(=O)(=O)[O-] | T |
| c1ccccc1 [benzene] + CCCCn1cc[n+](C)c1.COP(=O)([O-])OC | F |
| C=CCCCCCCCC [1-decene] + CCCCn1cc[n+](C)c1.COP(=O)([O-])OC | T |
| CCCC=O [butanal] + CCCCn1cc[n+](C)c1.[Cl-] | F |
| C1CCCCC1 [cyclohexane] + CCCCn1cc[n+](C)c1.[Cl-] | T |
| C#CCCC [1-pentyne] + CCCCn1cc[n+](C)c1.COP(=O)([O-])OC | F |
| C#CCCCCC [1-heptyne] + CCCCn1cc[n+](C)c1.COP(=O)([O-])OC | F |
| Cc1ccccc1C [1,2-dimethylbenzene] + CCCCn1cc[n+](C)c1.COP(=O)([O-])OC | F |
| CCC(=O)CC [pentan-3-one] + CCCCn1cc[n+](C)c1.COP(=O)([O-])OC | F |
| C=Cc1ccccc1 [styrene] + CCCCn1cc[n+](C)c1.CS(=O)(=O)[O-] | F |
| CCCC(=O)OC [methyl butanoate] + CCCCn1cc[n+](C)c1.[Cl-] | T |
| C1CCCCCC1 [cycloheptane] + CCCCn1cc[n+](C)c1.CS(=O)(=O)[O-] | T |
| CC(C)OC(C)C [diisopropyl ether] + CCCCn1cc[n+](C)c1.[Cl-] | T |
| C#CCCCCCC [1-octyne] + CCCCn1cc[n+](C)c1.COP(=O)([O-])OC | F |
